// provenance: the supplement of paper PMC11061612

tested on: WIL2-NS (Non-Cancerous); assay: combination Emax (second highest fraction inhibited in the dose matrix, 72 h); higher = more inhibition; extreme values may be limits of the assay
combination Emax values by entry
Format: numeric value only, no unit, no commentary.

// known answers, use as guide
compound | result-value
C=CCn1c(=O)c2cnc(Nc3ccc(N4CCN(C)CC4)cc3)nc2n1-c1cccc(C(C)(C)O)n1 [AZD1775] + C1CN(CCC1(C(=O)N[C@@H](CCO)C2=CC=C(C=C2)Cl)N)C3=NC=NC4=C3C=CN4 [Capivasertib] (first compound max 3 µM, partner max 3 µM) | 0.953
CC(=O)c1c(C)c2cnc(Nc3ccc(N4CCNCC4)cn3)nc2n(C2CCCC2)c1=O [Palbociclib] + Cn1cnc2c(F)c(Nc3ccc(Br)cc3Cl)c(C(=O)NOCCO)cc21 [Selumetinib] (first compound max 10 µM, 7x7, partner max 10 µM) | 0.74
Cc1cc2ncnn2cc1Nc1ncc2c(n1)n(C1CCOCC1)c(=O)n2C [AZD7648] + CN(C)CCCOc1ccc(-c2ccc3ncc4c(c3c2)n(C2CCOCC2)c(=O)n4C)cn1 [AZD0156] (first compound max 10 µM, 7x7, partner max 1 µM) | 0.395

Q. Recorded combination Emax of Cc1nc(-c2cn3c(n2)-c2ccc(-c4cnn(C(C)(C)C(N)=O)c4)cc2OCC3)n(C(C)C)n1 [Taselisib] + O=C(Nc1ccc2[nH]nc(-c3ccncc3)c2c1)[C@@H]1CCN(CC(=O)N2CCN(c3ccc(-c4ncccn4)cc3)CC2)C1 [SCH772984] (first compound max 10 µM, 7x7, partner max 5 µM) , please.
A. 0.728

---

combination Emax values by entry
tested on: L-540 (Hodgkin's Lymphoma); experiment: combination Emax (second highest fraction inhibited in the dose matrix, 72 h); higher = more inhibition; extreme values may be limits of the assay
Format: numeric value only, no unit, no commentary.

compound | value-type | result-value
Cc1c2c(nn1C)CSCc1cc(n(C)n1)CSc1cc(c3ccccc3c1)OCCCc1c(C(=O)O)n(C)c3c-2c(Cl)ccc13 [AZD5991] + C1CN(CCC1(C(=O)N[C@@H](CCO)C2=CC=C(C=C2)Cl)N)C3=NC=NC4=C3C=CN4 [Capivasertib] (first compound max 1 µM, 7x7, partner max 3 µM) | combination Emax | 1
Cc1cc2ncnn2cc1Nc1ncc2c(n1)n(C1CCOCC1)c(=O)n2C [AZD7648] + CCN(CCO)CCCOc1ccc2c(Nc3cc(CC(=O)Nc4cccc(F)c4)[nH]n3)ncnc2c1 [AZD2811] (first compound max 10 µM, 7x7, partner max 1 µM) | combination Emax | 0.504
CN(CCO)CC[C@H](CSc1ccccc1)Nc1ccc(S(=O)(=O)NC(=O)c2ccc(N3CCC([C@@H](O)c4ccccc4-c4ccc(Cl)cc4)CC3)cc2)cc1S(=O)(=O)C(F)(F)F [AZD4320] + Cc1cc2ncnn2cc1Nc1ncc2c(n1)n(C1CCOCC1)c(=O)n2C [AZD7648] (first compound max 1 µM, 7x7, partner max 10 µM) | combination Emax | 0.502
C[C@@H](Nc1cc(F)cc(F)c1)c1cc(C(=O)N(C)C)cc2c(=O)cc(N3CCOCC3)oc12 [AZD8186] + CC(=O)c1c(C)c2cnc(Nc3ccc(N4CCNCC4)cn3)nc2n(C2CCCC2)c1=O [Palbociclib] (first compound max 10 µM, 7x7, partner max 10 µM) | combination Emax | 0.267
CC1(C)CCC(CN2CCN(c3ccc(C(=O)NS(=O)(=O)c4ccc(NCC5CCOCC5)c([N+](=O)[O-])c4)c(Oc4cnc5[nH]ccc5c4)c3)CC2)=C(c2ccc(Cl)cc2)C1 [Venetoclax] + COc1cc(Nc2ncc3c(n2)-c2ccc(Cl)cc2C(c2c(F)cccc2OC)=NC3)ccc1C(=O)O [Alisertib] (first compound max 1 µM, 7x7, partner max 10 µM) | combination Emax | 0.89
CN(CCO)CC[C@H](CSc1ccccc1)Nc1ccc(S(=O)(=O)NC(=O)c2ccc(N3CCC([C@@H](O)c4ccccc4-c4ccc(Cl)cc4)CC3)cc2)cc1S(=O)(=O)C(F)(F)F [AZD4320] + CC(=O)O[C@H]1C(=O)[C@@]2(C)[C@H]([C@H](OC(=O)c3ccccc3)[C@]3(O)C[C@H](OC(=O)[C@H](O)[C@@H](NC(=O)c4ccccc4)c4ccccc4)C(C)=C1C3(C)C)[C@]1(OC(C)=O)CO[C@@H]1C[C@@H]2O [Paclitaxel] (first compound max 1 µM, 7x7, partner max 3 µM) | combination Emax | 0.974

Q. Recorded combination Emax of CS(=O)(=O)CCNCc1ccc(-c2ccc3ncnc(Nc4ccc(OCc5cccc(F)c5)c(Cl)c4)c3c2)o1 [Lapatinib] + NC1(c2ccc(-c3nc4ccn5c(=O)[nH]nc5c4cc3-c3ccccc3)cc2)CCC1 [MK-2206] (first compound max 10 µM, 7x7, partner max 10 µM) , please.
A. 0.918

Q. Recorded combination Emax of CS(=O)(=O)CCNCc1ccc(-c2ccc3ncnc(Nc4ccc(OCc5cccc(F)c5)c(Cl)c4)c3c2)o1 [Lapatinib] + Cn1cnc2c(F)c(Nc3ccc(Br)cc3Cl)c(C(=O)NOCCO)cc21 [Selumetinib] (first compound max 10 µM, 7x7, partner max 10 µM) , please.
A. 0.511

---

test system: CAMA-1 (Breast Carcinoma); assay: combination Emax (second highest fraction inhibited in the dose matrix, 72 h); higher = more inhibition; extreme values may be limits of the assay
combination Emax values by entry
Format: numeric value only, no unit, no commentary.

// known answers, use as guide
compound | combination Emax
NC1(C(=O)N[C@@H](CCO)c2ccc(Cl)cc2)CCN(c2ncnc3[nH]ccc23)CC1 [Capivasertib] + Cn1cnc2c(F)c(Nc3ccc(Br)cc3Cl)c(C(=O)NOCCO)cc21 [Selumetinib] (first compound max 10 µM, 7x7, partner max 10 µM) | 0.693
COc1nnc2ccc(N3CCC(c4ccc(OCCN5CCN(C)C(=O)[C@H]5C)cc4)CC3)nn12 [AZD5153] + C=CCn1c(=O)c2cnc(Nc3ccc(N4CCN(C)CC4)cc3)nc2n1-c1cccc(C(C)(C)O)n1 [AZD1775] (first compound max 1 µM, partner max 1 µM) | 0.453
Cn1cnc2c(F)c(Nc3ccc(Br)cc3Cl)c(C(=O)NOCCO)cc21 [Selumetinib] + CC(C)n1c(=O)n(C)c2cnc3cc(F)c(-c4ccc(OCCCN5CCCCC5)nc4)cc3c21 [AZD1390] (first compound max 10 µM, 7x7, partner max 0.3 µM) | 0.0892

Q. Recorded combination Emax of CS(=O)(=O)CCNCc1ccc(-c2ccc3ncnc(Nc4ccc(OCc5cccc(F)c5)c(Cl)c4)c3c2)o1 [Lapatinib] + C[C@@H](Oc1cc(-c2cnn(C3CCNCC3)c2)cnc1N)c1c(Cl)ccc(F)c1Cl [Crizotinib] (first compound max 10 µM, 7x7, partner max 10 µM) , please.
A. 0.321

---

test system: U251 (Low Grade Glioma); experiment: Bliss excess, mean over the matrix (fraction); higher = more synergy;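 also: after 72 h of two-drug dosing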
Bliss excess below 0.003 gives False; Bliss excess at or above it gives True.

molecule | assigned-label
Cn1cnc2c(F)c(Nc3ccc(Br)cc3Cl)c(C(=O)NOCCO)cc21 [Selumetinib] + CC(C)n1c(=O)n(C)c2cnc3cc(F)c(-c4ccc(OCCCN5CCCCC5)nc4)cc3c21 [AZD1390] (first compound max 10 µM, 7x7, partner max 0.3 µM) | False

Q. Check if Bliss excess >= 0.003 (inclusive). Item: Cc1c2c(nn1C)CSCc1cc(n(C)n1)CSc1cc(c3ccccc3c1)OCCCc1c(C(=O)O)n(C)c3c-2c(Cl)ccc13 [AZD5991] + C=CCn1c(=O)c2cnc(Nc3ccc(N4CCN(C)CC4)cc3)nc2n1-c1cccc(C(C)(C)O)n1 [AZD1775] (first compound max 1 µM, partner max 1 µM)
A. False

Q. Check if Bliss excess >= 0.003 (inclusive). Item: Cc1c2c(nn1C)CSCc1cc(n(C)n1)CSc1cc(c3ccccc3c1)OCCCc1c(C(=O)O)n(C)c3c-2c(Cl)ccc13 [AZD5991] + Cc1cc2ncnn2cc1Nc1ncc2c(n1)n(C1CCOCC1)c(=O)n2C [AZD7648] (first compound max 1 µM, 7x7, partner max 10 µM)
A. False

Q. Check if Bliss excess >= 0.003 (inclusive). Item: C[C@@H]1COCCN1c1cc(C2([S@](C)(=N)=O)CC2)nc(-c2ccnc3[nH]ccc23)n1 [AZD6738] + O=C(c1cc(Cc2n[nH]c(=O)c3ccccc23)ccc1F)N1CCN(C(=O)C2CC2)CC1 [Olaparib] (first compound max 10 µM, 7x7, partner max 10 µM)
A. True

Q. Check if Bliss excess >= 0.003 (inclusive). Item: CC1(C)CCC(CN2CCN(c3ccc(C(=O)NS(=O)(=O)c4ccc(NCC5CCOCC5)c([N+](=O)[O-])c4)c(Oc4cnc5[nH]ccc5c4)c3)CC2)=C(c2ccc(Cl)cc2)C1 [Venetoclax] + COc1cc(Nc2ncc3c(n2)-c2ccc(Cl)cc2C(c2c(F)cccc2OC)=NC3)ccc1C(=O)O [Alisertib] (first compound max 1 µM, 7x7, partner max 10 µM)
A. False

Q. Check if Bliss excess >= 0.003 (inclusive). Item: COc1nnc2ccc(N3CCC(c4ccc(OCCN5CCN(C)C(=O)[C@H]5C)cc4)CC3)nn12 [AZD5153] + CCN(CCO)CCCOc1ccc2c(Nc3cc(CC(=O)Nc4cccc(F)c4)[nH]n3)ncnc2c1 [AZD2811] (first compound max 1 µM, 7x7, partner max 1 µM)
A. True

Q. Check if Bliss excess >= 0.003 (inclusive). Item: CN(CCO)CC[C@H](CSc1ccccc1)Nc1ccc(S(=O)(=O)NC(=O)c2ccc(N3CCC([C@@H](O)c4ccccc4-c4ccc(Cl)cc4)CC3)cc2)cc1S(=O)(=O)C(F)(F)F [AZD4320] + C1CN(CCC1(C(=O)N[C@@H](CCO)C2=CC=C(C=C2)Cl)N)C3=NC=NC4=C3C=CN4 [Capivasertib] (first compound max 1 µM, 7x7, partner max 3 µM)
A. False
